# Tested on: OVCAR-4 ovarian
# EXPERIMENT: NCI-60 one-dose screen, 48 h (100 = growth as untreated, 0 = no growth, -100 = all killed)
# CONDITION_CONTEXT: 10 µM unless noted
About 83,000 compounds went through this panel and 20% of them were active in at least one assay; those are over-represented in the sample as a whole. The source made the active and inactive calls. How the source made its calls: active means growth percent below 10; inactive means the rest.

MOLECULE | growth
COc1cc2c3c(c1)nc(C)n3CCC2 | 96% (inactive)
CC(=O)c1cnc2ccc(-c3cc(Cl)c(O)c(Cl)c3)nc2c1NC1CCC(CN(C)C)CC1 (configuration not stated) | -9.08% [2.5 µM] (active)
Cc1c(NC(=O)OC[C@@H]2COCCN2)cn2ncnc(Nc3ccc4c(cnn4Cc4cccc(F)c4)c3)c12 | 24% (inactive)
CO[C@H]1C[C@@H]2CC[C@@H](C)[C@@](O)(O2)C(=O)C(=O)N2CCCC[C@H]2C(=O)O[C@H]([C@H](C)C[C@@H]2CC[C@@H](OC(=O)C(C)(CO)CO)[C@H](OC)C2)CC(=O)[C@H](C)/C=C(\C)[C@@H](O)[C@@H](OC)C(=O)[C@H](C)C[C@H](C)\C=C/C=C/C=C/1C | 28.2% (inactive)
CN(C[C@@H]1COCCO1)S(=O)(=O)Nc1ccc2ccc3ncc(-c4cnn(C)c4)cc3c(=O)c2c1 | 38.2% (inactive)
S=C(NCc1ccc2c(c1)OCO2)N1CCN(c2ncnc3c2oc2ccccc23)CC1 | 14.1% (inactive)
Cn1cc(-c2ncnc3ccc(-c4cnc(Cl)c(NS(C)(=O)=O)c4)cc23)c2ccccc21 | 15.4% (inactive)

* * *

# Tested on: SF-539 CNS
# EXPERIMENT: NCI-60 one-dose screen, 48 h (100 = growth as untreated, 0 = no growth, -100 = all killed)
# CONDITION_CONTEXT: 10 µM unless noted
About 83,000 compounds went through this panel and 20% of them were active in at least one assay; those are over-represented in the sample as a whole.
Field 'label' (enum: rule met / rule not met). Set to rule met when growth is strictly under 80%; else rule not met.

COMPOUND | MEASURED_ON | CLASS_LABEL
CCOC(=O)c1sc(NC(=O)COc2ccc(/C=C3\Cc4ccc(Cl)cc4C3=O)cc2)nc1C | SF-539 CNS | rule not met
Cc1cc(O)c2c(c1)C1OC(=O)CCCCCN1C1=C2C(=O)c2cccc(OC3CC(O)C(O)C(C)O3)c2C1=O (configuration not stated) | SF-539 CNS | rule not met
O=C(CNc1nc2ccccc2s1)Nc1ccc(-c2nc3ccccc3s2)cc1 | SF-539 CNS | rule not met
COc1ccc(C2CC(=O)c3c(O)c(OC)c(OC)c(OC)c3O2)c(O)c1 (configuration not stated) | SF-539 CNS | rule met
COc1ccc(C2CC(=O)c3c(O)c(OC)c(OC)c(OC)c3O2)cc1O (configuration not stated) | SF-539 CNS | rule met
CN1CCC(CNc2ccc3ncc(-c4cccc(OC(F)(F)F)c4)n3n2)CC1 | SF-539 CNS | rule met
Cc1nc2ccc(-n3ncc(C(=O)c4cc5ccccc5[nH]4)c3N)cc2[nH]1 | SF-539 CNS | rule met
C[C@@H](Oc1cc(-c2cnn(C3CCNCC3)c2)cnc1N)c1c(Cl)ccc(F)c1Cl | SF-539 CNS | rule met
O=C(c1ccccc1)C(c1ccccc1)N1CCOCC1 (configuration not stated) | SF-539 CNS | rule not met
O=C1C=CC2(NN=C(c3ccccc3)N2c2cccc(Cl)c2)C(Cl)=C1 (configuration not stated) | SF-539 CNS | rule not met
COc1cc(-c2nc(C(=O)NCC(=O)O)nn2-c2ccc(Cl)cc2)cc(OC)c1OC | SF-539 CNS | rule not met
Cc1cnc(NC(=O)Nc2cc(Br)c(C)cc2OC[C@@H]2CNCCO2)cn1 | SF-539 CNS | rule met
COc1cc(N2CCC(N(C)C)CC2)ccc1Nc1ncc(Cl)c(Nc2ccccc2P(C)(C)=O)n1 | SF-539 CNS | rule met
C/C(=C(/c1ccc(Cl)cc1)c1ccc(OCCN2CCCC2)cc1)c1ccccc1 | SF-539 CNS | rule met
CCc1ccc(/C=C/c2ccc(O)c3ncccc23)[n+](C)c1 | SF-539 CNS | rule met
CC(=O)C1=C(C)NC(SCc2nnc(-c3ccc(C)cc3)o2)=NC1c1ccc(F)cc1 (configuration not stated) | SF-539 CNS | rule not met
CCn1cc(-c2ccnc3[nH]c(-c4cccc(CN(C)C)c4)cc23)c(-c2ccc(NC(=O)N(C)C)cc2)n1 | SF-539 CNS | rule met
C/C(=C(/c1ccc(Cl)cc1)c1ccc(OCCN2CCCCCC2)cc1)c1ccccc1 | SF-539 CNS | rule met
CC1(O)CCC2CC3OC3(C)CCC3OC3(C)C(O)CC1C2(C)C (configuration not stated) | SF-539 CNS | rule not met
O=C(NO)c1ccc(Cn2c(=O)n(-c3ccccc3F)c(=O)c3ccccc32)cc1 | SF-539 CNS | rule met
COc1cc2nccc(Oc3ccc(NC(=O)Nc4cc(C)on4)c(Cl)c3)c2cc1OC | SF-539 CNS | rule met
CCc1nc2ccc(Cc3ccc(C(=O)NO)cc3)cc2c(=O)n1CCc1ccccc1 | SF-539 CNS | rule met
CC#CC(=O)N1CCC[C@H]1c1nc(-c2ccc(C(=O)Nc3ccccn3)cc2)c2c(N)nccn12 | SF-539 CNS | rule not met
COC(=O)CCCNc1c(-c2c(O)c(O)cc3c(O)c(-c4c(C)cc5c(-c6nc7ccccn7c6NCCCC(=O)OC)c(O)c(O)cc5c4O)c(C)cc23)nc2ccccn12 | SF-539 CNS | rule met
COC(=O)[C@@H](OC)[C@@H]1Cc2cc3cc(OC4CC(OC5CC(O)C(O)C(C)O5)C(O)C(C)O4)c(C)c(O)c3c(O)c2C(=O)[C@H]1OC1CC(OC2CC(OC3CC(C)(O)C(O)C(C)O3)C(O)C(C)O2)C(O)C(C)O1 (some centres not stated) | SF-539 CNS | rule met
O=C1CC(c2ccc(Cl)cc2)c2ncn(-c3cccc(Cl)c3)c2N1 (configuration not stated) | SF-539 CNS | rule met
O=C(Cn1ccc2ccccc21)Nc1ccc(-c2nc3ccccc3s2)cc1 | SF-539 CNS | rule not met
C=CC[n+]1c(/C=C2\Sc3ccccc3N2C)sc(-c2ccccc2)c1-c1ccccc1 | SF-539 CNS | rule met
Cc1c(NC(=O)OC[C@@H]2COCCN2)cn2ncnc(Nc3ccc4c(cnn4Cc4cccc(F)c4)c3)c12 | SF-539 CNS | rule met
Cc1cc(N2CCCC2)nc(N(CCCNc2ccnc3cc(Cl)ccc23)Cc2ccc3c(c2)OCO3)n1 | SF-539 CNS | rule met
COc1ccc(-c2nc(N)ncc2Oc2ccccc2OC)c(O)c1 | SF-539 CNS | rule met
CC1(O)CC(c2nc(-c3ccc4ccc(-c5ccccc5)nc4c3)c3c(N)nccn23)C1 (configuration not stated) | SF-539 CNS | rule met
Cn1c(=O)c(F)c(Nc2ccc(I)cc2F)c2c(=O)n(C[C@@H](O)CO)cnc21 | SF-539 CNS | rule met
C[C@]12O[C@H](C[C@]1(O)CO)n1c3ccccc3c3c4c(c5c6ccccc6n2c5c31)CNC4=O | SF-539 CNS | rule met
CCNCCNc1cc(-c2ccc(Cl)c(Cl)c2)c(C#N)c2nc3ccccc3n12 | SF-539 CNS | rule met
